Data origin: the supplement of paper PMC9233669

# System: biotinyl-Met-oxazolone
# experiment: self-aminoacylation, catalytic enhancement (BMO) (fold over background); higher = more active; k-Seq, kA / k0A0; sequences stand for … in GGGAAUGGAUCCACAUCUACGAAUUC…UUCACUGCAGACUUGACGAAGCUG
Variants at the floor of the assay were thinned out.
property-name: self-aminoacylation
Just the number, please, no unit attached.

Solved cases (5 shown):
residue_sequence="AUUAACCUAGUUCAUCGGGUG [Fam2.2 aminoacylation ribozyme variant]" property_name=self-aminoacylation reported_value=2.14
residue_sequence="AAAUGUGCUAAUAGUCGCAAG [Fam3.1 aminoacylation ribozyme variant]" property_name=self-aminoacylation reported_value=2.16
residue_sequence="CCACACUUCAAGCACUGGGUC [Fam1B.1 aminoacylation ribozyme variant]" property_name=self-aminoacylation reported_value=0.66
residue_sequence="CCUUACUUCAAGCAAUCGGUC [Fam1B.1 aminoacylation ribozyme variant]" property_name=self-aminoacylation reported_value=1.06
residue_sequence="AUGCACCUAGGUAAUCGGGUG [Fam2.2 aminoacylation ribozyme variant]" property_name=self-aminoacylation reported_value=2.56

Provide only the value of recorded self-aminoacylation for UAGUUUGCUUAUAGUCGCAAG [Fam3.1 aminoacylation ribozyme variant]
1.84

Provide only the value of recorded self-aminoacylation for ACACACUUAAAGCAAUCGGUC [Fam1B.1 aminoacylation ribozyme variant]
0.917

Provide only the value of recorded self-aminoacylation for CUGCUUCAAACAAUUGGUCUG [Fam1A.1 aminoacylation ribozyme variant]
0.715
